This collection of values is drawn from the supplement of paper PMC10567573.

B1: PPFIA4 (parent)
chain: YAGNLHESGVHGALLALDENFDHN

Variants of: B1
Experiment: protein stability index of a GFP-peptide fusion (GPS, HEK-293T) (PSI 1-6); higher = more stable;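 also: lentivirally expressed fusions sorted by FACS into six bins by GFP to DsRed ratio, PSI derived from sequencing read proportions per bin multiplied by bin number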
Conditions: c terminus: a fixed tail appended
MEASURED_ENDPOINT: protein stability index

SEQUENCE_CONTENT | VALUE_MEASURED
YAGNFHESGVHGALLALDENFDHN [L5F] | 2.02
YAGNLHESGVHGAVLALDENFDHN [L14V] | 2.16
YTGNLHESGVHGALLALDENFDHN [A2T] | 3.09
YAGNLHESGVHGALLALDEKFDHN [N20K] | 2.23
YAGNLHESGKHGALLALDENFDHN [V10K] | 2.97
YAGNLHESGVHGALLALDENFDMN [H23M] | 2.19
YAGNLHRSGVHGALLALDENFDHN [E7R] | 1.44
YAGNLHESGVHGALLALVENFDHN [D18V] | 2.07
YAGNLHESGVHGALLALDENFDYN [H23Y] | 2.43
YAGELHESGVHGALLALDENFDHN [N4E] | 3.82
YAGNLHESGVHGALAALDENFDHN [L15A] | 4.13
YAGNDHESGVHGALLALDENFDHN [L5D] | 3.71
YAGNLHESGVHMALLALDENFDHN [G12M] | 2.59
YAGNLHESGVHPALLALDENFDHN [G12P] | 2.11
YAGNLHESGVHGALLALDGNFDHN [E19G] | 2.1
YAGNLQESGVHGALLALDENFDHN [H6Q] | 2.19
YAGNLHESGGHGALLALDENFDHN [V10G] | 2.8
YAGNLHESGVHGALLALAENFDHN [D18A] | 1.66
YAGNLHESGVHGALLALDANFDHN [E19A] | 2.08
YAGNLHESLVHGALLALDENFDHN [G9L] | 2.1
YAGNLHESGVHGALVALDENFDHN [L15V] | 3.29
YAGNLHESGVHGALLALDELFDHN [N20L] | 1.63
YAGNLYESGVHGALLALDENFDHN [H6Y] | 1.88
FAGNLHESGVHGALLALDENFDHN [Y1F] | 2.04
YDGNLHESGVHGALLALDENFDHN [A2D] | 4.38
YAGNLHESGVHGALLAFDENFDHN [L17F] | 2.16
YIGNLHESGVHGALLALDENFDHN [A2I] | 2.12
YAGNLHESGVHGALLALDEHFDHN [N20H] | 2.48
YAGNLHESGVTGALLALDENFDHN [H11T] | 2.59
YAGGLHESGVHGALLALDENFDHN [N4G] | 2.65
YAGNLHTSGVHGALLALDENFDHN [E7T] | 2.24
YAGNLHESGVHGALLALDENFWHN [D22W] | 2.41
YAGNLHESGVHGALLALDENFTHN [D22T] | 1.87
YAGNLHESGVHGALLALDSNFDHN [E19S] | 1.54
